Data origin: ChEMBL document CHEMBL5291721

Reported AC50 for target or system UniProt P0DMS8, by entry.
Sequence (P0DMS8 whole entry): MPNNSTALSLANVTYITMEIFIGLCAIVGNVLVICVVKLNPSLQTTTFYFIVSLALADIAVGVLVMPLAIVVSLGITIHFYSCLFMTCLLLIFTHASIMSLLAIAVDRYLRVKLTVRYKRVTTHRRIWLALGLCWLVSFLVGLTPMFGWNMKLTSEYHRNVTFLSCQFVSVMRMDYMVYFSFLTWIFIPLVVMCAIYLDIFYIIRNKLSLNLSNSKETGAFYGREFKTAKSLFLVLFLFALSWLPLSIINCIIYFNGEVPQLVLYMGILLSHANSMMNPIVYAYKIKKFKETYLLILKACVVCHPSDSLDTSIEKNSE

| Compound | AC50 |
| --- | --- |
| CCN1CCC[C@H]1CNC(=O)c1cc(S(N)(=O)=O)ccc1OC [LEVOSULPIRIDE] | > 30 µM |
| Cc1ccc(-c2nc3ccc(C)cn3c2CC(=O)N(C)C)cc1 [ZOLPIDEM] | > 30 µM |
| C[C@H]1O[C@H](O[C@H]2[C@H](O)[C@@H](O)[C@@H](O[C@H]3[C@H](O)[C@@H](O)C(O)O[C@@H]3CO)O[C@@H]2CO)[C@H](O)[C@@H](O)[C@@H]1N[C@H]1C=C(CO)[C@@H](O)[C@H](O)[C@H]1O (stereo not given in full) [ACARBOSE] | > 30 µM |
| C#C[C@]1(O)CC[C@H]2[C@@H]3CCc4cc(O)ccc4[C@H]3CC[C@@]21C [ETHINYL ESTRADIOL] | 13.5 µM |
| C1=Cc2cccc(OCC3CNCCO3)c2C1 (stereo not given) [INDELOXAZINE] | > 30 µM |
| CCNC(C)Cc1cccc(C(F)(F)F)c1 (stereo not given) [FENFLURAMINE] | > 30 µM |
| O=C(OCCN1CCOCC1)c1cccnc1Nc1cccc(C(F)(F)F)c1 [MORNIFLUMATE] | > 30 µM |
| CC(C)C(=O)OCC(=O)[C@@]12O[C@H](C3CCCCC3)O[C@@H]1C[C@H]1[C@@H]3CCC4=CC(=O)C=C[C@]4(C)[C@H]3[C@@H](O)C[C@@]12C [CICLESONIDE] | 4.2 µM |
| Nc1ncnc2c1ncn2[C@@H]1O[C@H](COP(=O)(O)O)[C@@H](O)[C@H]1O [ADENOSINE PHOSPHATE] | > 30 µM |
| COc1cc(Nc2c(C#N)cnc3cc(OCCCN4CCN(C)CC4)c(OC)cc23)c(Cl)cc1Cl [BOSUTINIB] | 10.3 µM |
| CC(C)[N+](C)(CCC(C(N)=O)(c1ccccc1)c1ccccc1)C(C)C [ISOPROPAMIDE] | > 10 µM |
| O=C(O)CCn1c2c(c3ccccc31)C[C@H](NS(=O)(=O)c1ccc(F)cc1)CC2 [RAMATROBAN] | > 30 µM |
| OCc1cc([C@@H](O)CNCCCCCCOCCOCc2c(Cl)cccc2Cl)ccc1O [VILANTEROL] | 29 µM |
| C#C[C@]1(O)CC[C@H]2[C@@H]3CCC4=CCCC[C@@H]4[C@H]3CC[C@@]21C [LYNESTRENOL] | > 30 µM |
| CC(=O)NS(=O)(=O)c1ccc(N)cc1 [SULFACETAMIDE] | > 10 µM |
| C#CC1(OC(N)=O)CCCCC1 [ETHINAMATE] | > 10 µM |
| NC(CO)C(=O)NNCc1ccc(O)c(O)c1O (stereo not given) [BENSERAZIDE] | 21.6 µM |
| COc1ccc(C(=O)NCc2ccc(OCCN(C)C)cc2)cc1OC [ITOPRIDE] | > 30 µM |
| CCN(CC)CCNC(=O)c1cc(Cl)c(N)cc1OC [METOCLOPRAMIDE] | > 30 µM |
| NC[C@H]1CC[C@H](C(=O)O)CC1 [TRANEXAMIC ACID] | > 10 µM |
| CN(C)CCCN1c2ccccc2Sc2ccccc21 [PROMAZINE] | > 30 µM |
| NC(N)=Nc1nc(CSCCC(N)=NS(N)(=O)=O)cs1 [FAMOTIDINE] | > 30 µM |
| COc1ccc(C(=O)N2CCN(c3ccc4c(c3)CCC(=O)N4)CC2)cc1OC [VESNARINONE] | > 30 µM |
| CC(C)c1c(C(=O)Nc2ccccc2)c(-c2ccccc2)c(-c2ccc(F)cc2)n1CC[C@@H](O)C[C@@H](O)CC(=O)O [ATORVASTATIN] | > 30 µM |
| CCc1ccc(CCOc2ccc(CC3SC(=O)NC3=O)cc2)nc1 (stereo not given) [PIOGLITAZONE] | > 30 µM |
| CC(C(=O)O)c1ccc(N2CC=CC2)c(Cl)c1 (stereo not given) [PIRPROFEN] | > 30 µM |
| CN1CCCC(n2nc(Cc3ccc(Cl)cc3)c3ccccc3c2=O)CC1 (stereo not given) [AZELASTINE] | > 30 µM |
| CN[C@@H]1[C@H](O)[C@H](NC)[C@H]2O[C@@]3(O)C(=O)C[C@@H](C)O[C@H]3O[C@@H]2[C@H]1O [SPECTINOMYCIN] | > 10 µM |
| Cc1cc2c(OCC(CNC(C)(C)C)OC(=O)c3ccccc3)cccc2[nH]1 (stereo not given) [BOPINDOLOL] | > 30 µM |
| [H]/N=C(/N)c1ccc(NCc2nc3cc(C(=O)N(CCC(=O)O)c4ccccn4)ccc3n2C)cc1 [DABIGATRAN] | > 30 µM |
| CCOC(=O)[C@H](CCc1ccccc1)N[C@@H](C)C(=O)N1CCC[C@H]1C(=O)O | > 30 µM |
| CC(C)(N)Cc1ccc(Cl)cc1 [CHLORPHENTERMINE] | > 30 µM |
| CCOc1cc(N)c([N+](=O)[O-])cc1C(=O)NC1CCN(CC2CC=CCC2)CC1 (stereo not given) [CINITAPRIDE] | > 30 µM |
| CN1C(=O)CC(=O)N(c2ccccc2)c2cc(Cl)ccc21 [CLOBAZAM] | > 10 µM |
| COc1ccc2cccc(CCNC(C)=O)c2c1 [AGOMELATINE] | > 30 µM |
